Data provenance: PubChem BioAssay (NCI)

Task for the reader: assign each of the following compounds its reported growth inhibition.
experiment: NCI Yeast Anticancer Drug Screen. Data for the bub3 strain (AID 167); conditions: S. cerevisiae bub3 mutant strain, at 50.0 µM, active compounds read high
Compounds without any hit were thinned out: in the full panel of roughly 79,000, 15% have a hit. The source made the active and inactive calls. No stated cut-off is given here; in the data, active means growth inhibition above about 70%; inactive means the rest.

Ask | What does the data say about its growth inhibition? Entry: "COc1c2c(c(C)c3ccc4ccccc4c13)CCN=C2"
Reply | 79.2% (active)

Ask | What does the data say about its growth inhibition? Entry: "Nc1cc(Cl)ccc1SSc1ccc(Cl)cc1N"
Reply | 50.6% (inactive)

Ask | What does the data say about its growth inhibition? Entry: "O=C(CBr)Oc1ccc(-c2cccc(Br)c2)cc1"
Reply | 99.6% (active)

Ask | What does the data say about its growth inhibition? Entry: "Cc1nc(C(N)=S)sc1C(=O)CC(=O)C(=O)Nc1nc2ccccc2[nH]1"
Reply | 1.75% (inactive)

Ask | What does the data say about its growth inhibition? Entry: "O=[N+]([O-])c1c(Cl)cccc1-c1c[nH]cc1Cl"
Reply | 92.2% (active)

Ask | What does the data say about its growth inhibition? Entry: "O/N=C(/CN1CCN(c2ccccc2)CC1)c1ccccc1"
Reply | 13.4% (inactive)

Ask | What does the data say about its growth inhibition? Entry: Cc1ccc(OCC2CO2)c(Br)c1 (stereo unspecified)
Reply | -13.2% (inactive)

Ask | What does the data say about its growth inhibition? Entry: O=C(Cc1ccccc1)NC(C(=O)c1ccccc1)c1ccccc1 (stereo unspecified)
Reply | 83.2% (active)

Ask | What does the data say about its growth inhibition? Entry: "FC(F)(F)c1ccc(-c2ccc(OCCN3CCCC3)cc2)cc1"
Reply | 99.4% (active)

Ask | What does the data say about its growth inhibition? Entry: "CC[C@@H](C(=O)[C@@H](C)[C@@H](O)[C@H](C)CCc1ccc(C)c(O)c1C(=O)O)[C@H]1O[C@](CC)([C@H]2CC[C@](O)(CC)[C@H](C)O2)C[C@@H]1C"
Reply | 88.9% (active)

Ask | What does the data say about its growth inhibition? Entry: "Cn1nc(-c2ccc3c(c2)OCO3)[n+]([O-])c2c(=O)n(C)c(=O)nc1-2"
Reply | 99.4% (active)

Ask | What does the data say about its growth inhibition? Entry: "CCCCC1C(=S)N(c2ccccc2)N(c2ccccc2)C1=S"
Reply | 37% (inactive)

Ask | What does the data say about its growth inhibition? Entry: "O=C(CSc1nccc(=O)[nH]1)c1ccccc1"
Reply | 86% (active)

Ask | What does the data say about its growth inhibition? Entry: "CCCN(CCC)C(=O)CCC(C)=O"
Reply | -18.4% (inactive)

Ask | What does the data say about its growth inhibition? Entry: Fc1cccc(C2SCc3nc4ccccc4n32)c1F (stereo unspecified)
Reply | 73.3% (active)

Ask | What does the data say about its growth inhibition? Entry: O=C(O)C1CCc2ccc3ccccc3c2C1c1cccc2ccccc12 (stereo unspecified)
Reply | 97% (active)

Ask | What does the data say about its growth inhibition? Entry: CC(C)C(Cl)CC/C(CBr)=C(\Cl)CCl (stereo unspecified)
Reply | 92.3% (active)

Ask | What does the data say about its growth inhibition? Entry: "Cc1cc(C)c(S(=O)(=O)n2ccnc2)c(C)c1"
Reply | 10.3% (inactive)

Ask | What does the data say about its growth inhibition? Entry: "O=C(c1ccc(Cl)c([N+](=O)[O-])c1)c1ccc(Cl)c([N+](=O)[O-])c1"
Reply | 96.2% (active)

Ask | What does the data say about its growth inhibition? Entry: "Cc1scnc1C(C#N)(c1ccccc1)c1ccccc1"
Reply | 98.8% (active)

Ask | What does the data say about its growth inhibition? Entry: "NC(=Nc1ccccc1)c1ccc2c(c1)c1c(n2Cc2ccccc2)CCCC1"
Reply | 98.2% (active)
